src = PubChem BioAssay

test: antimalarial activity against Dd2 strain (AID 2302);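 also: 0% = DMSO untreated growth and 100% = chloroquine plus artemisinin killed control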; conditions: P. falciparum Dd2 in RBCs, LDH growth readout, 72 h; at 2 µM; active compounds read high
Label scheme for growth inhibition: lower than 40% is class 0, 40% and above is class 1.

CC(C)(C)c1cc(C(=O)N2CCN(c3ncnc4ccsc34)CC2)n(Cc2ccccc2)n1 : class 1
COc1ccc2nccc([C@@H](O)CN3CCC(NCc4cc5ccccc5[nH]4)CC3)c2n1 : class 1
O=S(=O)(NCCN1CCCC1)c1ccc(-c2cccc(CNCc3ccc(F)cc3)c2)cc1F : class 0
Cn1nc(C(F)(F)F)cc1-c1ccc(C(=O)Nc2ccc3c(c2)CNCC3(C)C)s1 : class 0
CCc1c[nH]c2c(N3CCCCC3=O)cc(C(=O)N[C@@H](Cc3ccccc3)[C@H](O)CNCc3cccc(OC)c3)cc12 : class 1
O=C(NCCCN1CCN(c2cccc(Cl)c2)CC1)c1ccc(-c2nc3cc(Cl)c(Cl)cc3[nH]2)c(F)c1 : class 1
CCCc1cc(N2CCC(N3CCCC3)CC2)nc(Nc2ccc(Cl)cc2)n1 : class 0
CCNc1cc(C(=O)N[C@@H](Cc2ccccc2)[C@H](O)CNC2(Cc3cccc(Cl)c3)CCC2)cc(N2CCCCS2(=O)=O)c1 : class 1
Cc1cc2c(NC(=O)NC3CCN(CCc4ccccc4Cl)CC3)cccc2cn1 : class 1
COc1ccc(-c2onc(C(F)(F)F)c2-c2cc3ccccc3o2)c(O)c1 : class 0

Ask: Hello, I need to know if Cc1cc(N2CCCC2=O)ccc1-c1ccc(C(=O)N2CCC(Oc3cccc(Cl)c3)CC2)cc1 has measured growth inhibition not below 40%. Thanks!
Result: class 1

Ask: Hello, I need to know if CC(C)(CNCc1cccc(Oc2cccc(C(F)(F)F)c2)c1)c1nc(-c2ccc(Cl)c(O)c2)c(-c2ccnc(N)n2)[nH]1 has measured growth inhibition not below 40%. Thanks!
Result: class 1
